Measured remaining activity at 0.01 µM of individual entries
Biological target: c-Myc protein (Homo sapiens)
Construct: degradation of myc and GSPT1 proteins in HL60 cells; endogenous in cells; host or cells: HL60
Sequence (P01106 whole entry): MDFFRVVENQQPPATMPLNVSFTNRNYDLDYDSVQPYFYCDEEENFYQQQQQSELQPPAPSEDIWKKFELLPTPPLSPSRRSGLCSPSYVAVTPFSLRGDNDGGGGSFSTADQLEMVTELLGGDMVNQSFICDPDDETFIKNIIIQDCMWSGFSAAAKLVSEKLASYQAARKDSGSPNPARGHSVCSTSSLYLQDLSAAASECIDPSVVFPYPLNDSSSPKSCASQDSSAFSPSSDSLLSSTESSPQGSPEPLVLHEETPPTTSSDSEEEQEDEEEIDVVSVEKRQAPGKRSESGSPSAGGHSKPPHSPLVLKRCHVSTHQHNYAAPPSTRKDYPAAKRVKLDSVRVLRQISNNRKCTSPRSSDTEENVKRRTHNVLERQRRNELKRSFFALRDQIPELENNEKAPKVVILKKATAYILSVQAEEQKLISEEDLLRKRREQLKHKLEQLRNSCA
Assay: c-Myc protein degradation in HL60 cells (Western blot)
Format: cell-based
Details: HL-60, compound at 10 nM, 24 h, gray value relative to Ctrl (DMSO), read-out: Remaining amount of c-Myc protein (@10 nM/Ctrl)

compound	remaining activity at 0.01 µM, %
O=C1CCC(N2Cc3cc(NC(=O)CC4CCN(c5ccc(-c6cccc7cccc(F)c67)cn5)CC4)ccc3C2=O)C(=O)N1 (centres unmarked)	19
N#Cc1cccc(-c2cnc(N3CCC(CNCc4ccc5c(c4)CN(C4CCC(=O)NC4=O)C5=O)CC3)nc2)c1 (centres unmarked)	30
Cc1cccc(-c2cnc(N3CCC(CNCc4ccc5c(c4)CN(C4CCC(=O)NC4=O)C5=O)CC3)nc2)c1 (centres unmarked)	0
O=C1CCC(N2Cc3cc(CNCC4CCN(c5ncc(-c6cccc(C(F)(F)F)c6)cc5F)CC4)ccc3C2=O)C(=O)N1 (centres unmarked)	3
O=C1C[C@H](N2Cc3cc(CNCC4CCN(c5ncc(-c6cccc(Cl)c6)cc5C(F)(F)F)CC4)ccc3C2=O)C(=O)N1	105
O=C1CCC(N2Cc3cc(CNCC4CCN(c5cnc(-c6cccc(Cl)c6)cn5)CC4)ccc3C2=O)C(=O)N1 (centres unmarked)	0
O=C1CC[C@H](N2Cc3cc(CNCC4CCN(c5ncc(-c6cccc(Cl)c6)cc5C(F)(F)F)CC4)ccc3C2=O)C(=O)N1	0
COc1cc(-c2cccc(Cl)c2)cnc1N1CCC(CNCc2ccc3c(c2)CN(C2CCC(=O)NC2=O)C3=O)CC1 (centres unmarked)	50
O=C1CCC(N2Cc3cc(CNCC4CCN(c5ncc(-c6cccc(Cl)c6)cc5C(F)(F)F)CC4)ccc3C2=O)C(=O)N1 (centres unmarked)	0
O=C1CCC(N2Cc3cc(CNCC4CCN(c5ncc(-c6cccc(F)c6)cn5)CC4)ccc3C2=O)C(=O)N1 (centres unmarked)	19
O=C1CCC(N2Cc3cc(CNCC4CCN(c5ncc(-c6ccccc6)cc5C(F)(F)F)CC4)ccc3C2=O)C(=O)N1 (centres unmarked)	6
O=C1CCC(N2Cc3cc(NC(=O)CC4CCN(c5ccc(-c6cccc7ccccc67)nc5)CC4)ccc3C2=O)C(=O)N1 (centres unmarked)	44
O=C1CCC(N2Cc3cc(CNCC4CCN(c5ncc(-c6cccc(Cl)c6)cc5F)CC4)ccc3C2=O)C(=O)N1 (centres unmarked)	0
O=C1CCC(N2Cc3cc(C(=O)NCC4CCN(c5nccc(-c6ccc7ccccc7c6)n5)CC4)ccc3C2=O)C(=O)N1 (centres unmarked)	52

* * *

Test system: HL60 cells
Assay: Anti-proliferation on HL60 cells (CellTiter-Glo, 3 days)
Assay type: cell-based
Details: Homo sapiens, HL-60, 72 h, 3 days incubation, CTG luminescence, IC50 by XLfit, read-out: HL60 cells Proliferation inhibitory activity
experimental readout: log10 IC50 (log10 of the value in nM)

molecule	study system	log10 IC50
O=C1CCC(N2Cc3cc(C(=O)NCC4CCN(c5ncc(-c6cccc(Cl)c6)cn5)CC4)ccc3C2=O)C(=O)N1 (stereo not shown)	HL60 cells	0.15
N#Cc1cc(-c2cccc(Cl)c2)cnc1N1CCC(CNCc2ccc3c(c2)CN(C2CCC(=O)NC2=O)C3=O)CC1 (stereo not shown)	HL60 cells	0.00
O=C1CC[C@H](N2Cc3cc(CNCC4(F)CCN(c5ncc(-c6cccc(Cl)c6)cc5C(F)(F)F)CC4)ccc3C2=O)C(=O)N1	HL60 cells	0.83
O=C1CCC(N2Cc3c(csc3CNCC3CCN(c4ncc(-c5cccc(Cl)c5)cc4C(F)(F)F)CC3)C2=O)C(=O)N1 (stereo not shown)	HL60 cells	3.48
O=C1CCC(c2coc3cc(CNCC4CCN(c5ncc(-c6cccc(Cl)c6)cc5C(F)(F)F)CC4)ccc23)C(=O)N1 (stereo not shown)	HL60 cells	3.24

The reported measurements were obtained from patent US20250059162A1.
